This section presents IC50 values reported for GCN2 (Homo sapiens (Human), UniProt Q9P2K8) in the literature.

For reference, reported IC50 for COc1ncc(Cl)cc1S(=O)(=O)Nc1ccc(F)c(-c2ccc3nc(NC4CCS(=O)(=O)C4)ncc3c2)c1F (centres unmarked) stands at 6.66 nM

For reference, reported IC50 for "C[C@@H]1C[C@H](N=S(C)(C)=O)CN(c2nccc(-c3cnc4ccc(C(F)F)cn34)n2)C1" stands at < 10 nM

For reference, reported IC50 for "FC(F)(F)c1ccc2ncc(-c3nccc(N4CCN(C[C@H]5CC56CCOCC6)[C@@H](c5cn[nH]c5)C4)n3)n2c1" stands at < 10 nM

For reference, reported IC50 for "C[C@@H]1CN(c2ccnc(-c3cnc4ccc(C(F)(F)F)cn34)n2)C[C@H](C)N1C(=O)c1ccn(C2CC2)n1" stands at 100 to 1000 nM

For reference, reported IC50 for COc1cc2cc(c1)C(=O)NCCNC(=O)C1(C)Oc3ccc(cc3NC1=O)Nc1nc(ncc1F)N2 (centres unmarked) stands at 300 to 3000 nM

For reference, reported IC50 for "COc1ccc(Nc2nc3c(-c4cccnc4)nccn3n2)cc1OC" stands at < 10000 nM

For reference, reported IC50 for "CC1(C)C(=O)Nc2cc(Nc3nc4c(N[C@H]5CCCNC5)nccn4n3)ccc21" stands at 3000 to 50000 nM

For reference, reported IC50 for COCCn1cc(-c2ccc(-n3cnc4cnc(N[C@H]5CC[C@H](O)C5)nc43)cc2F)cn1 (relative stereo) stands at 1000 to 5000 nM

For reference, reported IC50 for "C[C@H]1[C@@H](c2cn[nH]c2)NCCN1c1ccnc(-c2cnc3ccc(C(F)(F)F)cn23)n1" stands at 100 to 1000 nM

For reference, reported IC50 for "CC1(C)C(=O)Nc2cc(Nc3nc4cncc(-c5cnc6ccccc6c5)n4n3)ccc21" stands at 1000 to 5000 nM

For reference, reported IC50 for "Cc1n[nH]cc1[C@@H]1CN(c2ccnc(-c3cnc4cc(Cl)c(C(F)(F)F)cn34)n2)C[C@H](C)O1" stands at < 10 nM

For reference, reported IC50 for O=C(O)C1CC(F)CN(c2ccnc(-c3cnc4ccc(C(F)(F)F)cn34)n2)C1 (centres unmarked) stands at 10 to 100 nM

For reference, reported IC50 for CS(=O)(=O)C1CC(N2CCN(c3ccnc(-c4cnc5ccc(C(F)(F)F)cn45)n3)C[C@H]2c2cn[nH]c2)C1 (some centres unmarked) stands at < 10 nM

For reference, reported IC50 for "C[C@@H]1[C@H](C(N)=O)NCCN1c1ccnc(-c2cnc3ccc(C(F)(F)F)cn23)n1" stands at 100 to 1000 nM

For reference, reported IC50 for "Cn1cc(-c2cncc3nc(Nc4ccc(C(=O)N5CCOCC5)cc4)nn23)cn1" stands at < 1000 nM

For reference, reported IC50 for "O=C1NC[C@@]12CCCN(c1ccnc(-c3cnc4ccc(C(F)(F)F)cn34)n1)C2" stands at 10 to 100 nM

For reference, reported IC50 for "CN1CCN(c2ccc(Nc3nc4cncc(-c5cnn(C)c5)n4n3)cn2)CC1" stands at < 1000 nM

For reference, reported IC50 for "Cc1nc2cc(Nc3nc4c(-c5ccc(S(C)(=O)=O)cc5)nccn4n3)ccc2[nH]1" stands at 300 to 3000 nM

For reference, reported IC50 for "Clc1cn2nc(Nc3cccnc3)nc2cn1" stands at 1000 to 5000 nM

For reference, reported IC50 for "Cc1[nH]ncc1[C@@H]1CN(c2ccnc(-c3cnc4cc(F)c(Cl)cn34)n2)C[C@@H](C)O1" stands at 10 to 100 nM

For reference, reported IC50 for "C[C@@H]1CN(c2ccnc(-c3cnc4ccc(C(F)(F)F)cn34)n2)C[C@H](C)N1C(=O)c1ccncc1" stands at 100 to 1000 nM

For reference, reported IC50 for Cc1n[nH]cc1C1CN(c2ccnc(-c3cnc4ccc(C(F)(F)F)cn34)n2)CC(C)O1 (centres unmarked) stands at < 10 nM

For reference, reported IC50 for "COc1ncc(Cl)cc1S(=O)(=O)Nc1ccc(F)c(-c2ccc3nc(N)ncc3c2)c1F" stands at 10 to 100 nM

For reference, reported IC50 for "Nc1ncc2ccc(-c3c(F)ccc(NS(=O)(=O)c4cc(Cl)ccc4Cl)c3F)cc2n1" stands at > 1000 nM

For reference, reported IC50 for "Cc1ncc(Cl)cc1S(=O)(=O)Nc1ccc(F)c(-c2ccc3nc(N[C@H]4CC[C@H](N(C)C)CC4)ncc3c2)c1F" stands at 3.36 nM

For reference, reported IC50 for "C[C@@H]1C[C@H](N=S(C)(C)=O)CN(c2nccc(-c3cnc4ccc(C(F)(F)F)cn34)n2)C1" stands at 10 to 100 nM

For reference, reported IC50 for COCCN1C(C)CN(c2ccnc(-c3cnc4ccc(C(F)(F)F)cn34)n2)CC1C (centres unmarked) stands at 100 to 1000 nM

For reference, reported IC50 for "C[C@H]1C[C@@H](N=S(C)(C)=O)CN(c2ccnc(-c3cnc4ccc(S(N)(=O)=O)cn34)n2)C1" stands at 100 to 1000 nM

For reference, reported IC50 for "Cn1cc(-c2nccn3nc(Nc4ccc5cn[nH]c5c4)nc23)cn1" stands at 3000 to 50000 nM

For reference, reported IC50 for "Cn1cc(-c2cncc3nc(Nc4cccnc4)nn23)cn1" stands at < 1000 nM

For reference, reported IC50 for "Cc1cc(-c2cnc3ccc(Cl)cn23)nc(N2C[C@H](C)O[C@@H](c3c[nH]nc3C)C2)n1" stands at 10 to 100 nM

For reference, reported IC50 for "Cc1[nH]ncc1[C@@H]1C[C@@H](O)CN(c2ccnc(-c3cnc4ccc(C(F)(F)F)cn34)n2)C1" stands at 10 to 100 nM
